# Test system: 993429-296-R-J1-PDC complex spheroid growth, percent test/control
# Assay Remarks: Anticancer human tumor 993429-296-R-J1-PDC patient-derived uterine sarcoma cell line growth inhibition [Asc]
# Run Parameters: curve of first compound; second compound 0.1 µM
Parameter: IC50

{"Molecule": "CCN1CCN(Cc2ccc(Nc3ncc(F)c(-c4cc(F)c5nc(C)n(C(C)C)c5c4)n3)nc2)CC1 + Cc1c(S(C)(=O)=O)c(-c2cc(F)cc(N3CCN(c4ccc(NS(=O)(=O)c5ccc(NC(CCN6CCC(C(=O)OCCCP(=O)(O)O)CC6)CSc6ccccc6)c(S(=O)(=O)C(F)(F)F)c5)cc4)CC3)c2)c(-c2ccc(Cl)cc2)n1C(C)C", "Target Under Test": "993429-296-R-J1-PDC complex spheroid growth, percent test/control", "Parameter": "IC50", "Result": "> 1000 nM"}
{"Molecule": "COc1c(OCCCN2CCOCC2)ccc2c3n(c(=NC(=O)c4cnc(N)nc4)nc12)CCN3 + CNC(C)C(=O)NC1CN(S(=O)(=O)c2cccc(S(=O)(=O)N3CCC4CCC(C(=O)NC(c5ccccc5)c5ccccc5)N4C(=O)C(NC(=O)C(C)NC)C3)c2)CCC2CCC(C(=O)NC(c3ccccc3)c3ccccc3)N2C1=O", "Target Under Test": "993429-296-R-J1-PDC complex spheroid growth, percent test/control", "Parameter": "IC50", "Result": "12.1 nM"}
{"Molecule": "CCN1CCN(Cc2ccc(Nc3ncc(F)c(-c4cc(F)c5nc(C)n(C(C)C)c5c4)n3)nc2)CC1 + CNC(C)C(=O)NC1CN(S(=O)(=O)c2cccc(S(=O)(=O)N3CCC4CCC(C(=O)NC(c5ccccc5)c5ccccc5)N4C(=O)C(NC(=O)C(C)NC)C3)c2)CCC2CCC(C(=O)NC(c3ccccc3)c3ccccc3)N2C1=O", "Target Under Test": "993429-296-R-J1-PDC complex spheroid growth, percent test/control", "Parameter": "IC50", "Result": "> 1000 nM"}
{"Molecule": "COc1c(OCCCN2CCOCC2)ccc2c3n(c(=NC(=O)c4cnc(N)nc4)nc12)CCN3 + Cc1c(S(C)(=O)=O)c(-c2cc(F)cc(N3CCN(c4ccc(NS(=O)(=O)c5ccc(NC(CCN6CCC(C(=O)OCCCP(=O)(O)O)CC6)CSc6ccccc6)c(S(=O)(=O)C(F)(F)F)c5)cc4)CC3)c2)c(-c2ccc(Cl)cc2)n1C(C)C", "Target Under Test": "993429-296-R-J1-PDC complex spheroid growth, percent test/control", "Parameter": "IC50", "Result": "12.6 nM"}
{"Molecule": "Cn1ncnc1[C@H]1c2n[nH]c(=O)c3cc(F)cc(c23)N[C@@H]1c1ccc(F)cc1 + CNC(C)C(=O)NC1CN(S(=O)(=O)c2cccc(S(=O)(=O)N3CCC4CCC(C(=O)NC(c5ccccc5)c5ccccc5)N4C(=O)C(NC(=O)C(C)NC)C3)c2)CCC2CCC(C(=O)NC(c3ccccc3)c3ccccc3)N2C1=O", "Target Under Test": "993429-296-R-J1-PDC complex spheroid growth, percent test/control", "Parameter": "IC50", "Result": "3.94 nM"}

---

# Tested on: 993429-296-R-J1-PDC complex spheroid growth, percent test/control
# Assay Remarks: Anticancer human tumor 993429-296-R-J1-PDC cell line growth inhibition [Asc];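 also: spheroids exposed to compounds for seven days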
# Run Parameters: curve of first compound; second compound 0.949 µM

{"Molecule": "CNC(C)C(=O)NC1CN(S(=O)(=O)c2cccc(S(=O)(=O)N3CCC4CCC(C(=O)NC(c5ccccc5)c5ccccc5)N4C(=O)C(NC(=O)C(C)NC)C3)c2)CCC2CCC(C(=O)NC(c3ccccc3)c3ccccc3)N2C1=O (stereo not given) + CCN1C(C(=O)NC23CCC(C(=O)O)(CC2)CC3)C(c2cccc(Cl)c2F)C2(C(=O)Nc3cc(Cl)ccc32)C12CCCCC2", "Target Under Test": "993429-296-R-J1-PDC complex spheroid growth, percent test/control", "IC50": "> 1000 nM"}
{"Molecule": "NC1CCC(NC2CC2c2ccccc2)CC1 (stereo not given) + CCN1C(C(=O)NC23CCC(C(=O)O)(CC2)CC3)C(c2cccc(Cl)c2F)C2(C(=O)Nc3cc(Cl)ccc32)C12CCCCC2", "Target Under Test": "993429-296-R-J1-PDC complex spheroid growth, percent test/control", "IC50": "> 100 nM"}
{"Molecule": "CCN1CCN(Cc2ccc(Nc3ncc(F)c(-c4cc(F)c5nc(C)n(C(C)C)c5c4)n3)nc2)CC1 + CCN1C(C(=O)NC23CCC(C(=O)O)(CC2)CC3)C(c2cccc(Cl)c2F)C2(C(=O)Nc3cc(Cl)ccc32)C12CCCCC2", "Target Under Test": "993429-296-R-J1-PDC complex spheroid growth, percent test/control", "IC50": "> 1000 nM"}
{"Molecule": "Cn1ncnc1[C@H]1c2n[nH]c(=O)c3cc(F)cc(c23)N[C@@H]1c1ccc(F)cc1 + CCN1C(C(=O)NC23CCC(C(=O)O)(CC2)CC3)C(c2cccc(Cl)c2F)C2(C(=O)Nc3cc(Cl)ccc32)C12CCCCC2", "Target Under Test": "993429-296-R-J1-PDC complex spheroid growth, percent test/control", "IC50": "> 100 nM"}
{"Molecule": "C=CC(=O)N1CCN(c2nc(=O)n(-c3c(C)ccnc3C(C)C)c3nc(-c4c(O)cccc4F)c(F)cc23)C(C)C1 (stereo not given) + CCN1C(C(=O)NC23CCC(C(=O)O)(CC2)CC3)C(c2cccc(Cl)c2F)C2(C(=O)Nc3cc(Cl)ccc32)C12CCCCC2", "Target Under Test": "993429-296-R-J1-PDC complex spheroid growth, percent test/control", "IC50": "> 10000 nM"}
